Quick list: in vitro Activity Compared to Native Peptide (%), vs Glucagon per entry.
# subject of test: human GCG receptor (human, UniProt P47871 26-477)
# Sequence (P47871 26-477): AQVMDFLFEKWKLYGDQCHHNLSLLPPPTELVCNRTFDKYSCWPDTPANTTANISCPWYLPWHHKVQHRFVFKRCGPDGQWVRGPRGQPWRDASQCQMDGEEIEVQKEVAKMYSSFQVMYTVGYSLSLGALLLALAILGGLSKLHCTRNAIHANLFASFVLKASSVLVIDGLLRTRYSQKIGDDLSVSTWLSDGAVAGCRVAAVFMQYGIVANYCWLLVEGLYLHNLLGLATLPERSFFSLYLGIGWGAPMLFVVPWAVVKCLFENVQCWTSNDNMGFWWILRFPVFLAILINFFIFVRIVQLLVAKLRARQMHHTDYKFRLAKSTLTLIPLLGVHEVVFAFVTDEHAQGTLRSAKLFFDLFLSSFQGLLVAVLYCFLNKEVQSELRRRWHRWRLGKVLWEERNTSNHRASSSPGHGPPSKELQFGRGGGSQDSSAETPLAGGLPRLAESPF
# protocol summary: cell-based or functional assay
Bridges are numbered along the chain shown (N, C = ends). Where no end group is shown, it is not given here. [ ]: non-standard residue; d: D form. The star is where a group is joined. Acetyl(2-(4-imidazolyl)) = O=C(Cc1c[nH]cn1)*; Aib = CC(C)(N)C(=O)O
reported endpoint: in vitro Activity Compared to Native Peptide (%), vs Glucagon

{"binder": "[Acetyl(2-(4-imidazolyl))][Aib]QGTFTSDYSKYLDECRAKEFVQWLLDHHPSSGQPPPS (bridge 16-20; not fully specified (C-terminus)) [triple agonist of SEQ ID NO: 73]", "result value": "5.4%"}
{"binder": "H[Aib]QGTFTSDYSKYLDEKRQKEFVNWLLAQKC (bridge 16-20; not fully specified (C-terminus)) [triple agonist of SEQ ID NO: 34]", "result value": "0.92%"}
{"binder": "[Acetyl(2-(4-imidazolyl))][Aib]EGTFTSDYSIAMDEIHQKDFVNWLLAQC (bridge 16-20; not fully specified (C-terminus)) [triple agonist of SEQ ID NO: 83]", "result value": "1.3%"}
{"binder": "H[Aib]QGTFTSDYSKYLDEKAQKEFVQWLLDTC (bridge 16-20; not fully specified (C-terminus)) [triple agonist of SEQ ID NO: 30]", "result value": "0.7%"}
{"binder": "[Acetyl(2-(4-imidazolyl))]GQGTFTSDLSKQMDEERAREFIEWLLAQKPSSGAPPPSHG-NH2 [triple agonist of SEQ ID NO: 17]", "result value": "< 0.1%"}

Cited source: patent US20250114463A1
